These entries and their values trace back to patent US20260049140A1.

Target: T1, TCE-1
T1 construct: anti-CD3 scFv wt fused to anti-TROP2 Fab HC wt
Experiment: competition ELISA: peptide titrated and pre-incubated with a constant concentration of TCE-1; TCE-1 bound to plate-captured biotinylated CD3 is detected (blocked ligand: CD3)
Ends that are not written are not given here.
Measured IC50 (read off the curve) of individual entries

Illustrative cases are given below, each with its answer.
- binder: "AYCGPEFDESVGCM (cysteine pairing not given here; also: biotinylated when captured in binding ELISA, also called 1555) [Peptide-8]"
  endpoint name: "IC50 (read off the curve)"
  experimental result: "~400 nM"
- binder: "DWCWYSPDNDGLCD (cysteine pairing not given here; also: biotinylated when captured in binding ELISA, also called 1446) [Peptide-4]"
  endpoint name: "IC50 (read off the curve)"
  experimental result: "~2000 nM"

What does the record list as IC50 (read off the curve) for SECLVDLQSDPCYW (cysteine pairing not given here; also: biotinylated when captured in binding ELISA, also called 1454) [Peptide-5] ?
~3000 nM

Need IC50 (read off the curve) of ASQCLGPEWEVCPY (cysteine pairing not given here; also: biotinylated when captured in ELISA, also called 1594) [Peptide-10] , thanks.
~200 nM

I have this binder here, GSQCLGPEWEVCPY (cysteine pairing not given here; also: biotinylated when captured in ELISA, also called 1419) [Peptide-2] , and I need its recorded IC50 (read off the curve).
~300 nM
